Target sequence: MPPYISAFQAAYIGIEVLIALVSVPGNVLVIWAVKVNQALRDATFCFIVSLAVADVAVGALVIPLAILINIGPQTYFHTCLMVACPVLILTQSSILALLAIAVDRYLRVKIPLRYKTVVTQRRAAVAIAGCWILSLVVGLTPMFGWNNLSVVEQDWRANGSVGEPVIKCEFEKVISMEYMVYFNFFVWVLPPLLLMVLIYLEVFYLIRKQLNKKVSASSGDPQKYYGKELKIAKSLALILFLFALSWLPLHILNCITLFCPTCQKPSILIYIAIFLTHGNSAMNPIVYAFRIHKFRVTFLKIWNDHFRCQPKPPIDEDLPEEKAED
TEST READOUT: pKi
Field pKi (float): negative decimal logarithm of the concentration in molar.

[ask] Any idea what pKi was measured for Nc1ccc(CCNc2ncnc3c2ncn3C2O[C@H](CO)[C@@H](O)[C@H]2O)cc1I (stereo partly specified) ?
[reply] 8.68
